molecular target: CYP158A1 (Streptomyces coelicolor, UniProt Q9KZF5, K90I); experiment: UV-vis difference spectral titration
Sequence (Q9KZF5 whole entry K90I): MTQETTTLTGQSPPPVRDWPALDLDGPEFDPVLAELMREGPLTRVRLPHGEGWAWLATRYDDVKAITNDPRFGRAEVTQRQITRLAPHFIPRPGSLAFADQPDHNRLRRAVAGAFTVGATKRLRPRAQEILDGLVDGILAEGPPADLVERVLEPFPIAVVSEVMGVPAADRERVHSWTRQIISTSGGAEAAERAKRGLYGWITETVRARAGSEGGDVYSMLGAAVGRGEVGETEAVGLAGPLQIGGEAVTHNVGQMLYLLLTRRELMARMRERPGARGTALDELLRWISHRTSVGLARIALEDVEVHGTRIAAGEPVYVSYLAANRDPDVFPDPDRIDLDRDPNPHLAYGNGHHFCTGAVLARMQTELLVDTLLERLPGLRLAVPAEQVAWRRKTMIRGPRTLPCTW
readout: Kd (µM)
Note: unit µM is implicit; provide only the numeric part.

Which Kd is reported for this molecule? O=C1C(O)=CC(=O)c2c(O)cc(O)cc21 [flaviolin]
16.9

---

target: CYP158A1 (Streptomyces coelicolor)
readout: Kd (µM)
Output spec: scalar in µM, unitless text.

// query Kd value for entry "O=C1C(O)=CC(=O)c2c(O)cc(O)cc21"
10.5
